System: Cyperus difformis
EXPERIMENTAL_DETAILS: Pre-emergence herbicidal activity against Cyperus difformis assessed as phytotoxic weed control visual ratings at 2.5 kg ai/ha measured after 14 days post treatment under flooded conditions
Type: functional
Items are presented alongside their recorded Phytotoxicity.
Answer format: numeric, % implied, no suffix.

Below, each entry is followed by its recorded Phytotoxicity result.
C=CC1(C)OC(=O)N(c2cc(Cl)cc(Cl)c2)C1=O (centres undefined); 50
CC(C)=C1OC(=O)N(c2ccc(Cl)c(Cl)c2)C1=O; 100

The reported value for CC(C)=C1OC(=O)N(c2c(Cl)cc(Cl)cc2Cl)C1=O in terms of Phytotoxicity is 100

Phytotoxicity for CC(C)=C1OC(=O)N(c2cc(Cl)cc(Cl)c2)C1=O is 30

Sure, the documented Phytotoxicity for C=C(C)C1(C)OC(=O)N(c2cc(Cl)cc(Cl)c2)C1=O (centres undefined) is 30

Lab note: measured Phytotoxicity of CC(C)=C1OC(=O)N(c2cccc(Cl)c2)C1=O was 30
